Measured values drawn from patent US20170073337A1 for this set.

protocol: Metabolic stability test
Type: in vitro ADME
measurement.parameters: human liver microsomes, 37° C., 30 minutes, NADPH
Criterion met if remaining % is below 80%. Criterion not met if not; exact matches included in Criterion not met.

In: Determine whether this compound shows remaining % lower than 80% (ties excluded): COc1cnc(C(=O)Nc2ccc(F)c([C@@]3(C)N=C(N)O[C@H]([C@@H](C)F)[C@@H]3F)c2)cn1
Out: Criterion met

In: Just wondering, is remaining % of CO[C@H]1[C@@H](CF)OC(N)=N[C@]1(C)c1cc(NC(=O)c2ccc(F)cn2)ccc1Cl below 80%?
Out: Criterion met

In: API: query returns whether the compound falls strictly under 80% in remaining %. Query: CC[C@H]1SC(N)=N[C@](C)(c2cc(NC(=O)c3ccc(OCF)cn3)ccc2F)[C@H]1F
Out: Criterion met

In: Is remaining % of C[C@H]1SC(N)=N[C@](C)(c2cc(NC(=O)c3cnc(OC(F)F)cn3)ccc2F)[C@H]1F strictly below 80%?
Out: Criterion not met

====

Answer each item with its documented IC50.
target.under.test: Recombinant human BACE1 (Homo sapiens)
Construct: purchased R&D Systems
Sequence (P56817 46-501): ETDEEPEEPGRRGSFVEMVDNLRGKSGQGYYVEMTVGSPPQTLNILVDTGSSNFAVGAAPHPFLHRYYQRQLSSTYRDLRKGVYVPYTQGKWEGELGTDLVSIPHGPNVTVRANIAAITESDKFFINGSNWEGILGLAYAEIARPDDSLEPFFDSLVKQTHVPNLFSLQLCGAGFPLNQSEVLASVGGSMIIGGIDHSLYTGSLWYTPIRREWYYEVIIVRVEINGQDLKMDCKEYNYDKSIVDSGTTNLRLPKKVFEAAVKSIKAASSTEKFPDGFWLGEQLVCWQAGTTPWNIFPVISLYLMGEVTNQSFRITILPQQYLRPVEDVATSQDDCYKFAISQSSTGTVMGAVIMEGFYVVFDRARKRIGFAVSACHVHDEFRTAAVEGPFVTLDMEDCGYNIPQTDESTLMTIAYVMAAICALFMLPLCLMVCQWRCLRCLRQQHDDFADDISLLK
protocol: Assay of BACE1 inhibitory activity: 96-well
Assay type: biochemical
measurement.parameters: Assay format 96-well
A number alone suffices; assume nM.

In: Please give the measured IC50 for this molecule: C[C@]1(c2cc(NC(=O)c3ccc(C#N)cn3)ccc2F)N=C(N)O[C@H](CF)[C@@H]1OCC(F)(F)F
Out: 25.8

In: Fill blank: measured IC50 of the molecule COc1cnc(C(=O)Nc2ccc(F)c([C@@]3(C)N=C(N)S[C@H](C)[C@@H]3F)c2)cn1 is ____.
Out: 11.8

In: Consider the molecule CO[C@H]1[C@@H](CF)OC(N)=N[C@]1(C)c1cc(NC(=O)c2ccc(F)cn2)ccc1F and give its measured IC50.
Out: 156

In: Find the recorded IC50 belonging to C[C@H]1[C@@H](C(F)F)OC(N)=N[C@]1(C)c1cc(NC(=O)c2ccc(C#N)cn2)ccc1F and report it.
Out: 22.3

In: Quick one: IC50 for C[C@@H]1[C@@H](C(F)(F)F)OC(N)=N[C@]1(C)c1cc(NC(=O)c2ccc(C#N)cn2)ccc1F ?
Out: 40.5

In: Recorded IC50 of CO[C@H]1[C@@H](CF)OC(N)=N[C@]1(C)c1cc(NC(=O)c2ncc(Cl)cc2Cl)ccc1F , please.
Out: 33.9

In: Which IC50 value is on record for CO[C@H]1[C@@H](CF)OC(N)=N[C@]1(C)c1cc(NC(=O)c2ccc(F)cn2)ccc1Cl ?
Out: 72.7

In: Endpoint output: IC50 of COc1cnc(C(=O)Nc2ccc(F)c([C@@]3(C)N=C(N)O[C@H]([C@H](C)F)[C@@H]3F)c2)cn1 . Value?
Out: 59.7

====

protocol: Solubility test
Format: physicochemical
measurement.parameters: solubility in JP 2nd fluid B, 1% DMSO; *2: shaken for 1 hour at room temperature; read-out: JP2_μM
So I've got a bunch of compounds here, and I need their solubility kinetic at 16 h values.

In: # query: solubility kinetic at 16 h of entry CC[C@H]1SC(N)=N[C@](C)(c2cc(NC(=O)c3cnc(OCF)cn3)ccc2F)[C@H]1F [Compound I-66]
Out: >50 µM

In: What value of measured solubility kinetic at 16 h is listed for COc1cnc(C(=O)Nc2ccc(F)c([C@@]3(C)N=C(N)S[C@H](C)[C@@H]3OC)c2)cn1 [Compound I-90] ?
Out: >50 µM

In: Entry C[C@H]1SC(N)=N[C@](C)(c2cc(NC(=O)c3ccc(OCF)cn3)ccc2F)[C@H]1F [Compound I-51] has what solubility kinetic at 16 h?
Out: >50 µM

In: Given the compound COc1ccc(C(=O)Nc2ccc(F)c([C@@]3(C)N=C(N)S[C@H](C)[C@@H]3F)c2)nc1 [Compound I-50] , what is its reported solubility kinetic at 16 h?
Out: >50 µM

In: # query: solubility kinetic at 16 h of entry [2H]C([2H])([2H])Oc1cnc(C(=O)Nc2cccc([C@@]3(C)N=C(N)S[C@H](C)[C@@H]3F)c2)cn1 [Compound I-114]
Out: >50.0 µM

In: Could you tell me which solubility kinetic at 16 h is on file for COc1ccc(C(=O)Nc2ccc(F)c([C@@]3(C)N=C(N)S[C@H](C)[C@@H]3F)c2)nn1 [Compound I-108] ?
Out: >50 µM

In: Data request, read-out solubility kinetic at 16 h, for Cc1cc(C#N)cnc1C(=O)Nc1ccc(F)c([C@@]2(C)N=C(N)SCC23CC(F)(F)C3)c1 [Compound I-60]
Out: >50 µM

In: solubility kinetic at 16 h lookup needed for CO[C@H]1[C@@H](C)SC(N)=N[C@]1(C)c1cc(NC(=O)c2ccc(C#N)cn2)ccc1F [Compound I-88] , thanks.
Out: >50 µM

In: Any idea what solubility kinetic at 16 h was measured for COCC(F)(F)[C@H]1OC(N)=N[C@](C)(c2cc(NC(=O)c3cnc(OCF)cn3)ccc2F)[C@H]1F [Compound I-79] ?
Out: >50 µM

In: Which solubility kinetic at 16 h value belongs to C[C@H]1SC(N)=N[C@](C)(c2cc(NC(=O)c3ccc(F)cn3)ccc2F)C12CC(F)(F)C2 [Compound I-63] ?
Out: >50 µM

In: Suppose we examine the compound C[C@H]1SC(N)=N[C@](C)(c2cc(NC(=O)c3cnc(C(F)F)cn3)ccc2F)[C@H]1F [Compound I-65] ; what solubility kinetic at 16 h value has been reported?
Out: >50 µM

====

protocol: Metabolic stability test
Format: in vitro ADME
measurement.parameters: human liver microsomes, 37° C., 30 minutes, NADPH
Can you tell me remaining % for the items I'm about to list?
The reply should be a number in %, with the unit left off.

In: Would you mind telling me what remaining % value was observed for COc1ccc(C(=O)Nc2ccc(F)c([C@@]3(C)N=C(N)S[C@H](C)[C@@H]3F)c2)nn1 ?
Out: 92.1

In: Could you share which remaining % value was measured for CO[C@H]1[C@@H](C)SC(N)=N[C@]1(C)c1cc(NC(=O)c2cnc(OCF)cn2)ccc1F ?
Out: 81

In: Given C[C@H]1SC(N)=N[C@](C)(c2cc(NC(=O)c3cnc(OCC4CC4)cn3)ccc2F)[C@H]1F , state its recorded remaining %.
Out: 93.2

In: Return reported remaining %; argument: CO[C@H]1[C@@H](CF)OC(N)=N[C@]1(C)c1cc(NC(=O)c2cnc(OCF)cn2)ccc1Cl
Out: 69.9

In: # query: remaining % of entry C[C@]1(c2cc(NC(=O)c3ccc(OCF)cn3)ccc2F)N=C(N)O[C@H](C2(F)CC2)[C@@H]1F
Out: 91.8

In: What measured remaining % goes with C[C@H]1SC(N)=N[C@](C)(c2nc(NC(=O)c3ccc(C#N)cn3)ccc2F)[C@H]1F ?
Out: 82.4

In: Name the reported remaining % value associated with the molecule Cc1cc(C#N)cnc1C(=O)Nc1cccc([C@@]2(C)N=C(N)S[C@H](C)[C@@H]2F)c1
Out: 56.8

In: Could you tell me which remaining % is on file for C[C@]1(c2cc(NC(=O)c3ccc(C#N)cn3)ccc2F)N=C(N)OCC12CC(F)(F)C2 ?
Out: 84.5

In: What value of remaining % has been reported for the following molecule? C[C@]1(c2cc(NC(=O)c3cnc(OCF)cn3)ccc2F)N=C(N)S[C@H](CO)[C@@H]1F
Out: 86.8

In: Look at this molecule and give its reported remaining %. C[C@H]1[C@@H](C(F)F)OC(N)=N[C@]1(C)c1cc(NC(=O)c2cnc(OCF)cn2)ccc1F
Out: 87.5

In: I would be grateful if you could share the reported remaining % for C[C@H](F)[C@H]1OC(N)=N[C@](C)(c2cc(NC(=O)c3ccc(C#N)cn3)ccc2F)[C@H]1F .
Out: 101

In: Which measured remaining % value corresponds to COc1cnc(C(=O)Nc2ccc(F)c([C@@]3(C)N=C(N)O[C@H](C(C)(F)F)[C@@H]3F)c2)cn1 ?
Out: 68.2

In: Which remaining % value belongs to C[C@H]1[C@@H](C(F)(F)F)OC(N)=N[C@]1(C)c1cc(NC(=O)c2cnc(OCF)cn2)ccc1F ?
Out: 105

In: Value lookup for remaining %; key = C[C@H]1SC(N)=N[C@](C)(c2cc(NC(=O)c3ccc(F)cn3)ccc2F)[C@H]1F
Out: 106

In: Field request: remaining % | item: COc1cnc(C(=O)Nc2cccc([C@@]3(C)N=C(N)S[C@H](C)[C@@H]3F)c2)cn1
Out: 78.3

In: Item under review: C[C@]1(c2cc(NC(=O)c3cnc(OCF)cn3)ccc2F)N=C(N)O[C@H](CF)[C@@H]1OCC(F)(F)F . Reported remaining %?
Out: 97.8

In: Field request: remaining % | item: C[C@H]1SC(N)=N[C@](C)(c2cccc(NC(=O)c3cnc(OCF)cn3)c2)[C@H]1F
Out: 77.7

In: Which remaining % is reported for this molecule? COc1ccc(C(=O)Nc2ccc(F)c([C@@]3(C)N=C(N)O[C@H](C(F)(F)C4CC4)[C@@H]3F)c2)nc1
Out: 82.2

In: Give its remaining % value. Item: CO[C@H]1[C@@H](CF)OC(N)=N[C@]1(C)c1cc(NC(=O)c2ccc(C#N)cn2)ccc1Cl
Out: 71.4

In: Need remaining % of C[C@]1(c2cc(NC(=O)c3ccc(F)cn3)ccc2F)N=C(N)SCC12CC(F)(F)C2 , thanks.
Out: 71.5

In: Param item = C[C@]1(c2cc(NC(=O)c3ccc(F)cn3)ccc2F)N=C(N)O[C@H](CF)[C@@H]1OCC(F)(F)F ; retrieve measured remaining %.
Out: 104

In: I would be grateful if you could share the reported remaining % for COc1ccc(C(=O)Nc2ccc(F)c([C@@]3(C)N=C(N)O[C@H](C4(F)CC4)[C@@H]3F)c2)nc1 .
Out: 60.2

In: Which remaining % value is on record for C[C@H]1SC(N)=N[C@](C)(c2cccc(NC(=O)c3ccc(OCF)cn3)c2)[C@H]1F ?
Out: 64.2

In: Which measured remaining % value corresponds to C[C@@H](F)[C@H]1OC(N)=N[C@](C)(c2cc(NC(=O)c3ccc(C#N)cn3)ccc2F)[C@H]1F ?
Out: 104
